System: Mycosphaerella graminicola; Anamorph: Septoria tritici; Bayer Code SEPTTR
Method Summary: Fungicidal activity: leaf blotch of wheat, protectant and curative treatment of inoculated wheat plants
Format: in vivo
Experimental Parameters: Zymoseptoria tritici, 24 h; One-Day Protectant (1DP), 100 ppm, wheat plants (variety Yuma), percent control vs untreated inoculated plants; read-out: SEPTTR 100 PPM 1DP (% Disease Control rating)
Readout Type: pest or weed control at 100 ppm

Item Smiles: Cc1cc(S(=O)(=O)n2cc(F)c(N)nc2=O)ccc1Oc1ncc(C(F)(F)F)cc1Cl
pest or weed control at 100 ppm: 76 to 100%
--
Item Smiles: Cc1ccc(S(=O)(=O)n2cc(F)c(/N=C/N(C)C)nc2=O)cc1
pest or weed control at 100 ppm: 76 to 100%
--
Item Smiles: Nc1nc(=O)n(S(=O)(=O)c2ccc(C(F)(F)F)cc2)cc1F
pest or weed control at 100 ppm: 76 to 100%
--
Item Smiles: Cc1ccc(S(=O)(=O)n2cc(F)c(N)nc2=O)cc1
pest or weed control at 100 ppm: 76 to 100%

Okay, now this molecule:
In: Please give measured pest or weed control at 100 ppm of the following entry: CCCS(=O)(=O)n1cc(F)c(/N=C/N(C)C)nc1=O
Out: 76 to 100%

---

# reported pest or weed control at 100 ppm; entries follow
System: Mycosphaerella graminicola; Anamorph: Septoria tritici; Bayer Code SEPTTR
Method Summary: Fungicidal activity: leaf blotch of wheat, protectant and curative treatment of inoculated wheat plants
Format: in vivo
Experimental Parameters: Zymoseptoria tritici, 24 h; One-Day Protectant (1DP), 100 ppm, wheat plants (variety Yuma), percent control vs untreated inoculated plants; read-out: SEPTTR 100 PPM 1DP (% Disease Control rating)

Item Smiles: CCC(=O)Nc1nc(=O)n(S(=O)(=O)c2ccc(Cl)cc2)cc1F
Result: 76 to 100%

In: Please give measured pest or weed control at 100 ppm of the following entry: CCCS(=O)(=O)n1cc(F)c(N)nc1=O
Out: 76 to 100%

In: Please give measured pest or weed control at 100 ppm of the following entry: CN(C)/C=N/c1nc(=O)n(S(C)(=O)=O)cc1F
Out: 76 to 100%

In: Please give measured pest or weed control at 100 ppm of the following entry: CN(C)/C=N/c1nc(=O)n(S(=O)(=O)c2c(Cl)cccc2Cl)cc1F
Out: 76 to 100%

---

System: Mycosphaerella graminicola; Anamorph: Septoria tritici; Bayer Code SEPTTR
Method Summary: Fungicidal activity: leaf blotch of wheat, protectant and curative treatment of inoculated wheat plants
Type: in vivo
Experimental Parameters: Zymoseptoria tritici, 72 h; Three-Day Curative (3DC), 100 ppm, wheat plants (variety Yuma), percent control vs untreated inoculated plants; read-out: SEPTTR 100 PPM 3DC (% Disease Control rating)
Protocol: Evaluation of Fungicidal Activity: Leaf Blotch of Wheat (Mycosphaerella graminicola; Anamorph: Septoria tritici; Bayer Code SEPTTR) […] The following table presents the activity of typical compounds of the present disclosure when evaluated in these experiments. The effectiveness of the test compounds in controlling disease was determined by assessing the severity of disease on treated plants, then converting the severity to percent control based on the level of disease on untreated, inoculated plants. […]
Readout Type: pest or weed control at 100 ppm

Compound: Nc1nc(=O)n(S(=O)(=O)c2ccc(Cl)cc2Cl)cc1F [Cmpd 13]
pest or weed control at 100 ppm: 76 to 100%
//
Compound: Nc1nc(=O)n(S(=O)(=O)c2ccc(Cl)c(Cl)c2)cc1F [Cmpd 17]
pest or weed control at 100 ppm: 76 to 100%
//
Compound: Nc1nc(=O)n(S(=O)(=O)Cc2ccc(Br)cc2)cc1F [Cmpd 19]
pest or weed control at 100 ppm: 76 to 100%
//
Compound: N#Cc1ccc(S(=O)(=O)n2cc(F)c(N)nc2=O)cc1 [Cmpd 16]
pest or weed control at 100 ppm: 76 to 100%
//
Compound: CN(C)/C=N/c1nc(=O)n(S(=O)(=O)c2cn(C)cn2)cc1F [Cmpd 28]
pest or weed control at 100 ppm: 51 to 75%
//
Compound: Nc1nc(=O)n(S(=O)(=O)c2c(Cl)cccc2Cl)cc1F [Cmpd 18]
pest or weed control at 100 ppm: 76 to 100%

In: Please give measured pest or weed control at 100 ppm of the following entry: O=C(Nc1ccccc1)Nc1nc(=O)n(S(=O)(=O)c2c(Cl)cccc2Cl)cc1F [Cmpd 42]
Out: 26 to 50%

In: Please give measured pest or weed control at 100 ppm of the following entry: CN(C)/C=N/c1nc(=O)n(S(=O)(=O)c2ccc(Cl)cc2)cc1F [Cmpd 2]
Out: 76 to 100%

In: Please give measured pest or weed control at 100 ppm of the following entry: Nc1nc(=O)n(S(=O)(=O)c2ccc(Cl)cc2)cc1F [Cmpd 8]
Out: 76 to 100%

In: Please give measured pest or weed control at 100 ppm of the following entry: Cn1cnc(S(=O)(=O)n2cc(F)c(N)nc2=O)c1 [Cmpd 11]
Out: 26 to 50%

Numbers sourced from patent US9862686B2.
